All values here come from patent US20250346584A1.

Entries and their log10 IC50
# MEASURED TARGET: kappa opioid receptor (OPRK1) (Homo sapiens (Human), UniProt P41145)
# Sequence (P41145 whole entry): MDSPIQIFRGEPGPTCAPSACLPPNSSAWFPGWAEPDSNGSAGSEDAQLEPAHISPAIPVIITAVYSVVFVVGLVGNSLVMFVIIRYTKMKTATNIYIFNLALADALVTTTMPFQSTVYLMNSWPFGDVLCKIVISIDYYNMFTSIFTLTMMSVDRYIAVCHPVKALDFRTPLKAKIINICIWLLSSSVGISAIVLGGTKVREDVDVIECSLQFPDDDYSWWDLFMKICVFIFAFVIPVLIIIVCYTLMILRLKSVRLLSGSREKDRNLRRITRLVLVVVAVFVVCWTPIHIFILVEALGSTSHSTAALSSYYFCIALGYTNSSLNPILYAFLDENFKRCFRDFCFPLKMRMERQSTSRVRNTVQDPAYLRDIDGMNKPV
# MEASUREMENT PROTOCOL: OPRK1 antagonist assay (b-arrestin-2-TEV / b-lactamase reporter cell line, EC80 U-50488 challenge)
# Type: cell-based
# EXPERIMENTAL CONDITIONS: read-out: IC50 nM (% inhib if other than 50%); antagonist mode vs EC80 U-50488; NA = not active at concentrations up to 10 μM
MEASURED PROPERTY: log10 IC50 (log10 of the value in nM)

| COMPOUND | log10 IC50 |
| --- | --- |
| Cc1ccc2nc(N3CCC(NC4CCCCC4)CC3)c(-c3ccc(C)o3)cc2c1 [compound 488] | 1.28 |
| COC1CN(c2nc3ccc(Cl)cc3cc2-c2nc(C)no2)CCC1NC1CCCCC1 (stereo not drawn) [compound 240] | 1.15 |
| COC1CN(c2nc(C)c(C)cc2-c2nc(C)no2)CCC1NC1CCCCC1 (stereo not drawn) [compound 178] | 2.68 |
| CCC1CN(c2ncc(C)cc2-c2nc(C)no2)CCC1NC1CCCCC1 (stereo not drawn) [compound 183] | 2.45 |
| COC(=O)c1cc(Br)cnc1N1CCC(N(C)C2CCCCC2)C(O)C1 (stereo not drawn) [compound 51] | 3.48 |
| COC(=O)c1cc(Br)cnc1N1CCC(NC2CCCCC2)C(C(=O)OC)C1 (stereo not drawn) [compound 116] | 2.90 |
| Cc1noc(-c2cc3cc(C)c(C)cc3nc2N2CCC(NC3CCCCC3)C(CO)C2)n1 (stereo not drawn) [compound 307] | 1.61 |
| COC(=O)c1cccnc1N1CCC(NC2CCCCCC2)C(O)C1 (stereo not drawn) [compound 55] | 3.26 |
| COC(=O)c1cc(Br)cnc1N1CCCC(NC2CCCCC2)CC1 (stereo not drawn) [compound 66] | 3.23 |

###

The reader will find reported IC50 values listed item by item below.
# MEASURED TARGET: kappa opioid receptor (OPRK1) (Homo sapiens (Human))
# MEASUREMENT PROTOCOL: OPRK1 antagonist assay (b-arrestin-2-TEV / b-lactamase reporter cell line, EC80 U-50488 challenge)
# Assay type: cell-based
# EXPERIMENTAL CONDITIONS: read-out: IC50 nM (% inhib if other than 50%); antagonist mode vs EC80 U-50488; NA = not active at concentrations up to 10 μM

| COMPOUND | MEASURED TARGET | IC50 [nM] |
| --- | --- | --- |
| Cc1nc(-c2cc3ccc(F)c(C)c3nc2N2CCC(NC3CCCC3)CC2)no1 [compound 504] | kappa opioid receptor (OPRK1) (Homo sapiens (Human)) | 45 |
| Cc1ccc2nc(N3CCC(NC4CCCCC4)CC3)c(-c3ccncn3)cc2c1 [compound 532] | kappa opioid receptor (OPRK1) (Homo sapiens (Human)) | 334 |
| Cc1noc(-c2cc3ccccc3nc2N2CCC(NC3CCCOC3)CC2)n1 (stereo not drawn) [compound 235] | kappa opioid receptor (OPRK1) (Homo sapiens (Human)) | 4 |
| COC1CN(c2nc3ccc(C)cc3cc2-c2nc(C)no2)CCC1NC1CCCCC1 (stereo not drawn) [compound 214] | kappa opioid receptor (OPRK1) (Homo sapiens (Human)) | 3 |
| Cc1noc(-c2cc3ccccc3nc2N2CCC(NC3CCCCC3C)C(CO)C2)n1 (stereo not drawn) [compound 206] | kappa opioid receptor (OPRK1) (Homo sapiens (Human)) | 33 |
| Cc1noc(-c2cc3ccc(F)cc3nc2N2CCC(NCC(C)C)CC2)n1 [compound 527] | kappa opioid receptor (OPRK1) (Homo sapiens (Human)) | 20 |
| COC(=O)c1cc(Br)cnc1N1CCC(NC2CCCCC2)C(C(=O)OC)C1 (stereo not drawn) [compound 113] | kappa opioid receptor (OPRK1) (Homo sapiens (Human)) | 2000 |
| CCOC(=O)c1cc(Br)cnc1N1CCC(NC2CCCCC2)C(CO)C1 (stereo not drawn) [compound 69] | kappa opioid receptor (OPRK1) (Homo sapiens (Human)) | 53 |
| CCc1ccc2nc(N3CCC(NC4CCCCC4)C(CO)C3)c(-c3nc(C)no3)cc2c1 (stereo not drawn) [compound 269] | kappa opioid receptor (OPRK1) (Homo sapiens (Human)) | 30 |
